Biological target: GRIP2_2, Q9C0E4
Sequence (Q9C0E4 137-245): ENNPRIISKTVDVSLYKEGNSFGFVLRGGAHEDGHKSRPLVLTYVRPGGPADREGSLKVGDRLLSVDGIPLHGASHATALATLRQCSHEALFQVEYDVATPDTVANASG
Assay: holdup assay
Design: key: below the threshold = too weak to quantify, mostly under pKd 3.1 to 4
Details: plain residues with an end cap or a label only (N-terminal biotin on a linker: ttds)
parameterMeasured: pKd

In the examples that follow, each entry is paired with its recorded pKd.
KLVIKTETTV [RASSF6, Q6ZTQ3]; below the threshold
SHSSKGETAV [FZD7, O75084]; 4.49
PPRQRSETQV [HPV82-E6, Q9IR59]; below the threshold
SSIDLWETAL [SLC15A5, A6NIM6]; below the threshold
PSRDRKETSI [RALBP1, Q15311]; 4.25

Given the entry SRSRRRETAL [HPV33-E6, P06427] , report its measured pKd. below the threshold
